Tested on: purple redstem (Ammannia coccinea)
Assay: Test E flooded paddy water application
Format: in vivo
Conditions: 64 g ai/ha; Flood; 21 days; scale 0 to 100 (0 no effect, 100 complete control)
OUTCOME_MEASURE: Redstem plant response rating

{"columns": ["SMILES_STRUCTURE", "OUTCOME_MEASURE", "VALUE_OBSERVED"],
 "data": [
  ["CCOC(=O)c1nc(-c2ccc(Cl)c(Cl)c2)nc(N)c1Br", "Redstem plant response rating", 0],
  ["CCOC(=O)c1nc(-c2ccc(C)c(C)c2)nc(N)c1Cl", "Redstem plant response rating", 0],
  ["Cc1ccc(-c2nc(N)c(Cl)c(C(=O)O)n2)cc1", "Redstem plant response rating", 0]
]}

---

Test system: morningglory (Ipomoea spp.)
Assay: Test A pre/postemergence
Assay type: in vivo
Conditions: Postemergence, 125 g ai/ha; 0 to 100 scale (0 no effect, 100 complete control)
OUTCOME_MEASURE: Plant response rating, Morningglory

{"columns": ["COMPOUND", "VALUE_OBSERVED"],
 "data": [
  ["COC(=O)c1nc(-c2ccc(I)cc2)nc(N)c1Br", 55],
  ["COC(=O)c1nc(-c2ccc(C)c(F)c2)nc(N)c1Cl", 0],
  ["COC(=O)c1nc(-c2ccc(Br)cc2)nc(N)c1Br", 60],
  ["CC(C)OC(=O)c1nc(-c2ccc(Cl)cc2)nc(N)c1Cl", 0],
  ["CCOC(=O)c1nc(-c2ccc(C)c(C)c2)nc(N)c1Cl", 0],
  ["CNc1nc(-c2ccc(Cl)cc2)nc(C(=O)OC)c1Cl", 20],
  ["CCOC(=O)c1nc(-c2ccc(Cl)cc2)nc(N)c1I", 5],
  ["Nc1nc(C2CC2)nc(C(=O)OCCCO)c1Cl", 90],
  ["COC(=O)c1nc(-c2ccc(Cl)cc2)nc(N)c1Br", 55],
  ["CS(=O)(=O)NC(=O)c1nc(C2CC2)nc(N)c1Cl", 45],
  ["COC(=O)c1nc(-c2ccc([S+](C)[O-])cc2)nc(N)c1Cl (stereo not shown)", 0],
  ["Nc1nc(C2CC2)nc(C(=O)OCC2COC(=O)O2)c1Cl (stereo not shown)", 80],
  ["CCOC(=O)c1nc(-c2ccc(C)cc2)nc(N)c1Cl", 10],
  ["COC(OC)c1nc(-c2ccc(I)cc2)nc(N)c1Cl", 0],
  ["CCOC(=O)c1nc(-c2ccc(Cl)cc2Cl)nc(N)c1Br", 50],
  ["CCOC(=O)c1nc(-c2cc(Br)cc(OC)c2)nc(N)c1Cl", 0],
  ["CCOC(=O)c1nc(-c2ccc(Cl)cc2Cl)nc(N)c1Cl", 55],
  ["CCCOC(=O)c1nc(C2CC2)nc(N)c1Cl", 90],
  ["Nc1nc(-c2ccc(F)cc2)nc(C(=O)O)c1Br", 40],
  ["CCOC(=O)c1nc(-c2ccccc2F)nc(N)c1Cl", 20],
  ["CCCCOC(=O)c1nc(C2CC2)nc(N)c1Cl", 90],
  ["Nc1nc(-c2ccc(Cl)cc2)nc(C(=O)OCc2ccccc2)c1Cl", 65],
  ["COC(=O)COc1nc(-c2ccc(Cl)cc2)nc(N)c1Cl", 40],
  ["COCCOCCOC(=O)c1nc(C2CC2)nc(N)c1Cl", 90],
  ["Nc1nc(C2CC2)nc(C(=O)OCC2CCCO2)c1Cl (stereo not shown)", 80]
]}

---

Test system: woolly cupgrass (Eriochloa villosa)
Assay: Test C pre/postemergence
Type: in vivo
Conditions: Postemergence, 250 g ai/ha; scale 0 to 100
Excerpt: […]
Measured Plant response rating, Cupgrass, Woolly, listed per entry for reference.

{"columns": ["COMPOUND", "SYSTEM_TESTED", "Plant response rating, Cupgrass, Woolly"],
 "data": [
  ["Nc1nc(C2CC2)nc(C=NO)c1Br", "woolly cupgrass (Eriochloa villosa)", 0],
  ["CC(=O)NN=Cc1nc(C2CC2)nc(N)c1Br", "woolly cupgrass (Eriochloa villosa)", 0],
  ["COC(=O)c1nc(C2CC2C)nc(N)c1Br (stereo not shown)", "woolly cupgrass (Eriochloa villosa)", 0],
  ["CN(C)N=Cc1nc(C2CC2)nc(N)c1Br", "woolly cupgrass (Eriochloa villosa)", 15]
]}

---

Test system: crabgrass (Digitaria sanguinalis)
Assay: Test C pre/postemergence
Format: in vivo
Settings: Digitaria sanguinalis, pre-emergence, Preemergence, 62 g ai/ha; scale 0 to 100, 0 no effect, 100 complete control; read-out: Plant response rating, Crabgrass
Measured pest or weed control at 62 g/ha, listed per entry for reference.

{"columns": ["SMILES_STRUCTURE", "SYSTEM_TESTED", "pest or weed control at 62 g/ha / %"],
 "data": [
  ["COC(=O)c1nc(C2CC2)nc(N)c1F", "crabgrass (Digitaria sanguinalis)", 0],
  ["Nc1nc(-c2ccc(Cl)cc2)nc(C(=O)O)c1Cl", "crabgrass (Digitaria sanguinalis)", 70],
  ["CCOC(=O)c1nc(C2CC2)nc(N)c1Cl", "crabgrass (Digitaria sanguinalis)", 40],
  ["COC(=O)c1nc(C2CC2)nc(N)c1Br", "crabgrass (Digitaria sanguinalis)", 0]
]}

---

Tested on: bermudagrass (Cynodon dactylon)
Test: Test C pre/postemergence
Type: in vivo
Settings: Preemergence, 62 g ai/ha; scale 0 to 100, 0 no effect, 100 complete control
OUTCOME_MEASURE: Plant response rating, Bermudagrass

{"columns": ["COMPOUND", "VALUE_OBSERVED"],
 "data": [
  ["CCOC(=O)C(Cl)c1nc(C2CC2)nc(N)c1Br (centres unmarked)", 0],
  ["CCCCOC(=O)c1nc(C2CC2)nc(N)c1Cl", 0],
  ["COC(=O)c1nc(C2CC2C)nc(N)c1Br (centres unmarked)", 0],
  ["COC(=O)Cc1nc(C2CC2)nc(N)c1Br", 0],
  ["CCOC(=O)Cc1nc(C2CC2)nc(N)c1Br", 0]
]}

---

Test system: early watergrass (Echinochloa oryzoides)
Test: Test E flooded paddy water application
Format: in vivo
Details: 250 g ai/ha; Flood; 21 days; scale 0 to 100 (0 no effect, 100 complete control)
Measured Watergrass, Early plant response rating, listed per entry for reference.

{"columns": ["SMILES_STRUCTURE", "SYSTEM_TESTED", "Watergrass, Early plant response rating"],
 "data": [
  ["Nc1nc(-c2ccc(Cl)cc2)nc(C(=O)[O-])c1Cl.[Na+]", "early watergrass (Echinochloa oryzoides)", 0],
  ["CCOC(=O)c1nc(-c2ccc(Cl)cc2Cl)nc(N)c1Br", "early watergrass (Echinochloa oryzoides)", 0],
  ["COC(=O)c1nc(-c2ccc(Br)cc2)nc(N)c1Br", "early watergrass (Echinochloa oryzoides)", 0],
  ["COC(=O)c1nc(-c2ccc(I)cc2)nc(N)c1Br", "early watergrass (Echinochloa oryzoides)", 0],
  ["CCOC(=O)c1nc(-c2ccc(C)cc2)nc(N)c1Br", "early watergrass (Echinochloa oryzoides)", 20]
]}

---

Measured Plant response rating, Johnsongrass, listed per entry for reference.
Test system: johnsongrass (Sorghum halepense)
Assay: Test C pre/postemergence
Type: in vivo
Conditions: Preemergence, 250 g ai/ha; scale 0 to 100

{"columns": ["SMILES_STRUCTURE", "SYSTEM_TESTED", "Plant response rating, Johnsongrass"],
 "data": [
  ["CCOC(=O)Cc1nc(C2CC2)nc(N)c1Br", "johnsongrass (Sorghum halepense)", 5],
  ["COC(=O)CNc1nc(C2CC2)nc(C(=O)OC)c1Br", "johnsongrass (Sorghum halepense)", 0],
  ["COC(=O)Cc1nc(C2CC2)nc(N)c1Br", "johnsongrass (Sorghum halepense)", 45],
  ["CC(C)COC(=O)c1nc(C2CC2)nc(N)c1Br", "johnsongrass (Sorghum halepense)", 75]
]}

---

Tested on: crabgrass (Digitaria sanguinalis)
Assay: Test A pre/postemergence
Type: in vivo
Settings: Preemergence, 125 g ai/ha; 0 to 100 scale where 0 is no effect and 100 is complete control; approximately ten days
OUTCOME_MEASURE: Plant response rating, Crabgrass

{"columns": ["SMILES_STRUCTURE", "VALUE_OBSERVED"],
 "data": [
  ["CC(C)=NOC(=O)c1nc(C2CC2)nc(N)c1Cl", 35],
  ["Nc1nc(-c2ccc(Cl)cc2)nc(C(=O)OCc2ccccc2)c1Cl", 10],
  ["Nc1nc(-c2ccc(Cl)cc2)nc(C(=O)O)c1Br", 35],
  ["CCOC(=O)c1nc(-c2ccc(Cl)cc2)nc(N)c1I", 0],
  ["COC(=O)c1nc(-c2ccc(I)cc2)nc(N)c1Br", 0]
]}

---

Measured Plant response rating, Sedge, Umbrella, listed per entry for reference.
Test system: umbrella sedge (Cyperus difformis)
Assay: Test B flooded paddy test
Format: in vivo
Details: Flood, 500 g ai/ha; scale 0 to 100

{"columns": ["SMILES_STRUCTURE", "Plant response rating, Sedge, Umbrella"],
 "data": [
  ["Nc1nc(-c2ccc(Cl)cc2)nc(C(=O)[O-])c1Cl.[Na+]", 90],
  ["CCCOC(=O)c1nc(C2CC2)nc(N)c1Cl", 10],
  ["Nc1nc(C2CC2)nc(C(=O)OCc2ccc(Cl)cc2)c1Cl", 70],
  ["COC(=O)c1nc(-c2ccc(F)cc2)nc(N)c1Br", 90],
  ["Nc1nc(-c2ccc(Br)cc2)nc(C(=O)O)c1Br", 90]
]}
